Biological target: mouse TLR7 (Mus musculus)
Sequence (P58681 27-1050): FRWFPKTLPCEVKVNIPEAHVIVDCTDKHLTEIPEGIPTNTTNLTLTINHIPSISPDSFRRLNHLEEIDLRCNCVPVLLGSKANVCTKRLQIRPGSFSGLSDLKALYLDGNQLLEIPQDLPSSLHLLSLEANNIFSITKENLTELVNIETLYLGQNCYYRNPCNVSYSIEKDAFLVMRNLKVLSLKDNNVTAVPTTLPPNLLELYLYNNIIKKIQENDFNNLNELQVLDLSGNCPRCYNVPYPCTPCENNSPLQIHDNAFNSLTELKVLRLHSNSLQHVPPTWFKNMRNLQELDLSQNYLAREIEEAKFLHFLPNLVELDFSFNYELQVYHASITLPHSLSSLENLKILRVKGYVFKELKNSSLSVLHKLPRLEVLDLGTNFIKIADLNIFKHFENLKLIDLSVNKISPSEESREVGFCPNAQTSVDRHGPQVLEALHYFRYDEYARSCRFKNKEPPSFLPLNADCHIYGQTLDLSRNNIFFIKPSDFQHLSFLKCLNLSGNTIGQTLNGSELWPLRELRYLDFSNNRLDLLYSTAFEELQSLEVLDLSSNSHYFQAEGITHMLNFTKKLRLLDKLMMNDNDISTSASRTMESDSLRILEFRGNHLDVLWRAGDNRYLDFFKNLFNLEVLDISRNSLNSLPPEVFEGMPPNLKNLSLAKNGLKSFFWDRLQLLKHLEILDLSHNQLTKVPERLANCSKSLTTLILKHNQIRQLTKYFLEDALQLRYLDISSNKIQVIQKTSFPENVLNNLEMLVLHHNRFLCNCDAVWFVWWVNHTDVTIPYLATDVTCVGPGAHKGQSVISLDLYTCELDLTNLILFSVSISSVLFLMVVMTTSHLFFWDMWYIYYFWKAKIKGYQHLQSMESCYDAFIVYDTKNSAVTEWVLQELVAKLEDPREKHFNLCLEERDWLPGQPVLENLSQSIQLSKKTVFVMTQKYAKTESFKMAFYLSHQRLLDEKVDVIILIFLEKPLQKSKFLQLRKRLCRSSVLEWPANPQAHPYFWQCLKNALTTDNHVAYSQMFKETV
Experiment: Short-term in vivo (STIV) assay: oral dosing, R848 s.c., plasma IL-6
Design: female BALB/c mice (Jackson Labs, Bar Harbor, Me.) were dosed by oral gavage; tissue Jackson Labs; host or cells: living female BALB/c mice; plasma IL-6 after s.c. R848
Details: 6 h; 100 mg/kg
experimental-endpoint: % Suppression vs. Vehicle (%)
The answer is to be given in %; state only the numeric part.

Notebook entry, mouse TLR7 (Mus musculus) assay: % Suppression vs. Vehicle of C[C@@H]1CN(c2ccc(C#N)c3ncccc23)C[C@H](CN2CCC(N3CCN(C)CC3)CC2)O1 = ?
99

Notebook entry, mouse TLR7 (Mus musculus) assay: % Suppression vs. Vehicle of C[C@@H]1CN(c2ccc(C#N)c3ncccc23)C[C@H](C(=O)NC2CCN(C)CC2)O1 = ?
99

Notebook entry, mouse TLR7 (Mus musculus) assay: % Suppression vs. Vehicle of C[C@@H]1CN(c2ccc(C#N)c3ncccc23)C[C@H](CN2CCC(N)CC2)O1 = ?
100

Notebook entry, mouse TLR7 (Mus musculus) assay: % Suppression vs. Vehicle of Cc1cc(CO)cc(-c2ccc(C#N)c3ncccc23)c1 = ?
50

Notebook entry, mouse TLR7 (Mus musculus) assay: % Suppression vs. Vehicle of COc1cccnc1NC[C@H]1CN(c2ccc(C#N)c3ncccc23)C[C@@H](C)O1 = ?
44

Notebook entry, mouse TLR7 (Mus musculus) assay: % Suppression vs. Vehicle of CC1CN(c2ccc(C#N)c3ncccc23)CC(CN2CCNCC2C)O1 (centres unmarked) = ?
99

Notebook entry, mouse TLR7 (Mus musculus) assay: % Suppression vs. Vehicle of C[C@@H]1CN(c2ccc(C#N)c3ncccc23)C[C@H](C(=O)N(C)[C@H]2CCCNC2)O1 = ?
79

Notebook entry, mouse TLR7 (Mus musculus) assay: % Suppression vs. Vehicle of CC1CN(c2ccc(C#N)c3ncccc23)CC(C(=O)NCC(C)(C)N(C)C)O1 (centres unmarked) = ?
99
